B1: 2K2A (parent)
chain: ELREAFRLYDKEGNGYISTDVMREILAELDETLSSEDLDAMIDEIDADGSGTVDFEEFMGVMT

Variants of: B1
Experiment: folding stability dG (cDNA display proteolysis); higher = more stable
Conditions: PBS, room temperature
Label not fulfilled if folding stability dG falls below 2 kcal/mol; label fulfilled in every other case.

[
  {
    "Mutations": "F6E",
    "Cat": "not fulfilled"
  },
  {
    "Mutations": "K11R",
    "Cat": "not fulfilled"
  },
  {
    "Mutations": "F55I",
    "Cat": "not fulfilled"
  },
  {
    "Mutations": "E28R",
    "Cat": "fulfilled"
  },
  {
    "Mutations": "R7Y",
    "Cat": "not fulfilled"
  }
]

Here is another variant to look at.
Ask | Identify whether the reported folding stability dG of the following variant is 2 kcal/mol or greater: `I42R`
Reply | not fulfilled

Ref: the MegaScale stability set (Tsuboyama et al. 2023)
